test: Blocking experiments: inhibition of radiotracer accumulation in the rat by coadministered compound; assay type: in vivo, rat (male Wistar); details: rat, muscle, iv, rat, iv, 60 min, + (+)-7 HCl 0.53 mg/kg; read-out: radioactivity in muscle
measurement.name: tissue uptake at 1 h (%ID/g)

>>> value_reported("OC(Cc1ccc([125I])cc1)CN1CCC(c2ccccc2)CC1 (single isomer, unassigned; (-)) [(-)-4-[^125 l]HIPP]")
0.07

====

tested on: vesamicol receptor; experiment: Blocking experiments: inhibition of radiotracer accumulation in the rat by coadministered compound; type: in vivo, rat (male Wistar); settings: rat, iv, 60 min, + (dl)-vesamicol HCl 0.3 (Table 3) or 0.31 mg/kg; 60 min
Respond with Y for Brain: Blood Ratio values of 2 and above, N for values below.

>>> label("OC(Cc1ccc([125I])cc1)CN1CCC(c2ccccc2)CC1 (single isomer, unassigned; (-)) [(-)-4-[^125 l]HIPP]")
"Y"
>>> label("OC(CN1CCC(c2ccccc2)CC1)c1ccc([125I])cc1 (single isomer, unassigned; (-)) [(-)-[^125 l]13]")
"N"
>>> label("OC(Cc1ccc([125I])cc1)CN1CCC(c2ccccc2)CC1 (single isomer, unassigned; (+)) [(+)-4-[^125 l]HIPP]")
"Y"
>>> label("OC(Cc1cccc([125I])c1)CN1CCC(c2ccccc2)CC1 (single isomer, unassigned; (-)) [(-)-[^125 l]12]")
"N"
>>> label("OC(Cc1cccc([125I])c1)CN1CCC(c2ccccc2)CC1 (single isomer, unassigned; (+)) [(+)-[^125 l]12]")
"Y"
>>> label("OC(CN1CCC(c2ccccc2)CC1)c1ccc([125I])cc1 (single isomer, unassigned; (+)) [(+)-[^125 l]13]")
"Y"

Source: patent US5358712A
